The measured values listed here are drawn from patent US20200239555A1.

targetOrTestSystem: T1, biotinylated native human ApoC3 (human, UniProt P02656 21-99, biotinylated (site not stated))
T1 construct: also called biotinylated human ApoC3
T1 sequence (P02656 21-99): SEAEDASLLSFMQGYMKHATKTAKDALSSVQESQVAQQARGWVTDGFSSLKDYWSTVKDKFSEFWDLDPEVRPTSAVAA
assayText: SPR, IgG1 over biotinylated ApoC3 on SA chip, pH 5.5
Protocol: Biotinylated native human ApoC3 was captured on a streptavidin coated SPR chip (GE Healthcare, cat. nr. BR100032) at pH 7.4, in accordance with the method provided by Biacore, by injection of 20 μl 10 μg/ml biotinylated native human ApoC3 reaching the surface density of approximately 500 RU. […] The resulting sensorgrams were analyzed using the BIAevaluation 4.1 software using Langmuir 1:1 binding model to derive binding kinetics. […]
metricName: Kd
Please report the result as a number followed by the unit.

Example results:
Note Kd for the binder shown: 5E5WT human IgG1 (antibody, V domains shown) VH: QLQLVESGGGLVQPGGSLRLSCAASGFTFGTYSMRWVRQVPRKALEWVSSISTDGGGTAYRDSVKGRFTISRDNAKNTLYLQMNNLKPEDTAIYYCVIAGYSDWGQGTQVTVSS VL: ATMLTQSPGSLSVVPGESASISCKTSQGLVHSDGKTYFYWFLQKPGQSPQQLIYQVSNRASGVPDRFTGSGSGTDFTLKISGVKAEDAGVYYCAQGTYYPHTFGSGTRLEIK 0.05 nM

Note Kd for the binder shown: mAb11 (antibody, IgG1, V domains shown, Produced as full length IgG1 (kappa) in ExpiCHO-S cells; also called humanized anti-ApoC3 antibody mAb11) VH: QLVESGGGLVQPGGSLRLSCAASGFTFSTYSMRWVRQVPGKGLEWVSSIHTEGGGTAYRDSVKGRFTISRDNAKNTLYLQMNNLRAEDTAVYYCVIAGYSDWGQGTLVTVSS VL: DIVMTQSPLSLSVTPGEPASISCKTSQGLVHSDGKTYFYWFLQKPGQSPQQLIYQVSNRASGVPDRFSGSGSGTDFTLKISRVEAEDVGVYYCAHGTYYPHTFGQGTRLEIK 0.33 nM

Note Kd for the binder shown: mAb3 (antibody, IgG1, V domains shown, Produced as full length IgG1 (kappa) in ExpiCHO-S cells; also called humanized anti-ApoC3 antibody mAb3) VH: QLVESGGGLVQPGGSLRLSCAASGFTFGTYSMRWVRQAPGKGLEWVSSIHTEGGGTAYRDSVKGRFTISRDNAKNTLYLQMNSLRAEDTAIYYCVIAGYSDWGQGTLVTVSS VL: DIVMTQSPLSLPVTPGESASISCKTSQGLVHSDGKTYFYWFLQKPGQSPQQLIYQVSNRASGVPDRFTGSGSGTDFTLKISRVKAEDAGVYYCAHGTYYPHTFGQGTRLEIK 0.35 nM

Okay, next one:
Note Kd for the binder shown: mAb1 (antibody, IgG1, V domains shown, Produced as full length IgG1 (kappa) in ExpiCHO-S cells; also called humanized anti-ApoC3 antibody mAb1) VH: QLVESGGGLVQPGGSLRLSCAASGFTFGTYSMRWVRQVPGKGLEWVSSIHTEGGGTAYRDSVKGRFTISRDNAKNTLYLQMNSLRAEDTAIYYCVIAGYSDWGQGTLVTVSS VL: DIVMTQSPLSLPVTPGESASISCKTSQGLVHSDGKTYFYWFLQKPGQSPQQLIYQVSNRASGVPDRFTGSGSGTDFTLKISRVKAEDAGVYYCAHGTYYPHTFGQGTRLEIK 0.24 nM
